TARGET OF ASSAY: mouse SGLT1 (Mus musculus, UniProt Q8C3K6)
Sequence (Q8C3K6 whole entry): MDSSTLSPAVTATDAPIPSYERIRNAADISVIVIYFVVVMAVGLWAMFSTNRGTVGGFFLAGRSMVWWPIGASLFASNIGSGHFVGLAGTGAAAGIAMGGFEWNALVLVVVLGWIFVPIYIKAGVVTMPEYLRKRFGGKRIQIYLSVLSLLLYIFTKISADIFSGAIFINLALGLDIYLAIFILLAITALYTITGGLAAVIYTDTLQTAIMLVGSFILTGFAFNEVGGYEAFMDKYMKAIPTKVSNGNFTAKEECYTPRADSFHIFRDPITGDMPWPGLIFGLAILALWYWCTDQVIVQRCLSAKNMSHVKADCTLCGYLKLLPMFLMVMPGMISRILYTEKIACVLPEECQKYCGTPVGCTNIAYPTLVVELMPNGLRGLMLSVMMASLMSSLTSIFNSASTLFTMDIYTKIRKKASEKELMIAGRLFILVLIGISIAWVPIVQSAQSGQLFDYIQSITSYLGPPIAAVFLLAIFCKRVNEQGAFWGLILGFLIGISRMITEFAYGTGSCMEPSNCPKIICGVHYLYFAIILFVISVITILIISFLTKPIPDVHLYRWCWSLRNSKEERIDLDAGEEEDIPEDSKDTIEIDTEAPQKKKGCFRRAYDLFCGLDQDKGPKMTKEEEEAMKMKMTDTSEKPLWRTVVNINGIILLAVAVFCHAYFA
TEST DESCRIPTION: Sodium-dependent 14C-AMG uptake assay in CHO-K1 cells expressing mouse SGLT1
MEASUREMENT CONTEXT: n=6
OUTCOME MEASURE: IC50 (nM)
# unit: nM | format: bare number

For this molecule ( `Cc1cccc2c1c(Cc1ccc(/C=C/CCN3CCCC4(CCN(C(=O)CNC(=O)NCC(C)C)CC4)C3)cc1)cn2[C@@H]1O[C@H](CO)[C@@H](O)[C@H](O)[C@H]1O` ), measured IC50 is 13.6

----------
TARGET OF ASSAY: human SGLT1 (Homo sapiens)
Sequence (P13866 1-664): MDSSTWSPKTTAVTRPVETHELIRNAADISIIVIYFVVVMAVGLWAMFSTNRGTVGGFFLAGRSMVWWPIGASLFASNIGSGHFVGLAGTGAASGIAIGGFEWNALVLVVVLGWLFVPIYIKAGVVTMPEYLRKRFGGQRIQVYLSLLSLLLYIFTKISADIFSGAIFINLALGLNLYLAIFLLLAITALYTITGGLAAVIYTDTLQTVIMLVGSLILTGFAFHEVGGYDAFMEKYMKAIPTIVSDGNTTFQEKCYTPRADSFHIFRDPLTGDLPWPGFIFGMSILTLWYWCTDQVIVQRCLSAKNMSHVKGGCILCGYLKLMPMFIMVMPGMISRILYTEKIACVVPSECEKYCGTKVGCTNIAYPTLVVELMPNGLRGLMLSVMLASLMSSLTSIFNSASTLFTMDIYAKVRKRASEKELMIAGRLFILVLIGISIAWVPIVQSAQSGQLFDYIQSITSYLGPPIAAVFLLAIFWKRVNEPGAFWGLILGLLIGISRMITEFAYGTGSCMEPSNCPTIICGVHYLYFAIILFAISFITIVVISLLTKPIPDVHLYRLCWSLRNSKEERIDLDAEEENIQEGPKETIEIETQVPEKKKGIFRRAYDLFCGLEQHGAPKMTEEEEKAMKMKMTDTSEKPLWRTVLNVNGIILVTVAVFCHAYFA
TEST DESCRIPTION: Sodium-dependent 14C-AMG uptake assay in CHO-K1 cells expressing human SGLT1
MEASUREMENT CONTEXT: n=9
OUTCOME MEASURE: IC50 (nM)
# unit: nM | format: bare number

For this molecule ( `Cc1cccc2c1c(Cc1ccc(/C=C/CCN3CCCC4(CCN(C(=O)CNC(=O)NCC(C)C)CC4)C3)cc1)cn2[C@@H]1O[C@H](CO)[C@@H](O)[C@H](O)[C@H]1O` ), measured IC50 is 17.4
